Test system: SK-MEL-2 melanoma
Experiment: NCI-60 one-dose screen, 48 h (100 = growth as untreated, 0 = no growth, -100 = all killed)
Conditions: 10 µM unless noted
This is part of a sample that, as a whole, favours compounds with a hit. Of some 83,000 tested, about 20% had one in any assay.
Kind request: treat 90% as inclusive, so growth at 90% or higher is condition met, anything lower is condition not met.

compound="O=C(C[n+]1ccn(CC(OCc2ccc(Cl)cc2Cl)c2ccc(Cl)cc2Cl)c1)c1ccc(F)cc1 (centres undefined)" category="condition not met"
compound=C[C@@H]1C[C@H]2C(=O)O[C@@H](C)[C@H](NC(=O)[C@H](Cc3cc(F)cc(F)c3)NC(=O)Nc3ccc(Cl)cc3F)C(=O)N3C[C@H](O)C[C@H]3C(=O)N3CCN(C)C[C@H]3C(=O)N[C@@H](C)C(=O)N2C1 category="condition not met"
compound="CCN(CC)CC(C)Nc1ccc(C)c2sc3ccccc3c(=O)c12 (centres undefined)" category="condition met"
compound=C[C@]12CCc3nc(Nc4ccccc4)sc3C1=CC[C@@H]1[C@@H]2CC[C@]2(C)/C(=N/NC(N)=S)CC[C@@H]12 category="condition not met"
compound=O=C1C(Cl)=C(Nc2ccc3cn[nH]c3c2)C(=O)c2ccccc21 category="condition not met"
compound=c1ccc(-c2nc(N3CCCNCC3)c3nc(-c4ccccc4)oc3n2)cc1 category="condition met"
compound=CCN(CC)CCCCCCNc1cccc2cc(Br)cnc12 category="condition not met"
compound=COc1cc(NCc2cn(-c3ccc(C(=O)O)cc3)nc2-c2ccc(C(=O)O)cc2)cc(OC)c1OC category="condition met"

* * *

System: SW-620 colon
Experiment: NCI-60 one-dose screen, 48 h
Settings: 10 µM unless noted
Procedure: Growth inhibition of the SW-620 human tumor cell line is measured as a screen for anti-cancer activity. Cells are grown in 96 well plates and exposed to the test compound for 48 hours. Compounds are tested at a single concentration, which is 10^-5 M for most compounds. The reported endpoint is percent growth (GI% or GIPRCNT), where numbers from 0 - 100% represent growth inhibition, and numbers from -100% - 0 represent cell death. For example, a value of 40 represents 60% growth inhibition. […]
The panel holds about 83,000 compounds, 20% with a hit somewhere; the sample as a whole holds those more often. Calls of active or inactive are those of the source. Rule for the calls: active = growth percent below 10; inactive = the rest.
Possible outcomes: label 1 for active, label 0 for inactive

compound=CCOC(CNC(=O)c1cccc([N+](=O)[O-])c1)OCC category="label 0"
compound=Cc1cc(C)nc(SCC(=O)Nc2cccc(N=Cc3ccccc3O)c2)n1 category="label 0"
compound=CC1(C)CC[C@]23CC[C@]4(C)[C@H](CC[C@@H]5[C@@]6(C)C/C(=C/c7ccncc7)C(=O)C(C)(C)[C@@H]6CC[C@]54C)[C@H]2[C@H]1OC3=O category="label 0"
compound=COc1cc2c(c(OC)c1OC)-c1ccc(NNC(N)=S)c(=O)cc1[C@@H](NC(C)=O)CC2 category="label 0"
compound=Oc1ccc(N=Nc2nccs2)c(O)c1 category="label 0"
compound=COc1ccc(NCc2cn(-c3ccc(C(=O)O)cc3)nc2-c2ccc(C(=O)O)cc2)cc1C(F)(F)F category="label 0"
compound=CC(C)CSc1ncnc2nc[nH]c12 category="label 0"
compound=COC(=O)[C@@H](NC(=O)NC(=O)NC(=O)CI)C(C)C category="label 1"
compound=CSc1nc2sc3cc(Cl)c(Cl)cc3n2c(=N)c1C#N category="label 0"
compound=O=C(CCNCc1ccccc1)c1ccccc1 category="label 0"
compound="COc1ccc(C2NC(=O)C(C#N)c3c2sc2c(F)cccc32)cc1 (stereo unspecified)" category="label 0"

Origin of the recorded values: PubChem BioAssay (NCI)
